Measurement notes: microbe, parasite or virus in culture
Assay type: functional
Conditions used: Mycobacterium tuberculosis
The source made the active and inactive calls. The rule behind the calls is not given here.
Recorded endpoint: CC50

Compound: CCCCNc1c(-c2ccc(SC3CCCCC3)c(OC)c2)nc2ccc(C)cn12
Recorded endpoint: CC50
Data value: > 40 µM (active)

Compound: C[C@]12CC[C@@H]3c4ccc(O)cc4CC[C@H]3[C@@H]1CC[C@@H]2OC(=O)CCC1CCCC1 [ESTRADIOL CYPIONATE]
Recorded endpoint: CC50
Data value: 30.6 µM (active)

Compound: CCCc1cc(NC(=O)CCl)n(-c2ccccc2)n1
Recorded endpoint: CC50
Data value: 17.4 µM (active)

Now for another entry.
The reported CC50 of the compound O=C(c1ccccc1)c1nn(-c2ccc(Cl)cc2)c(=O)cc1C(F)(F)F was 15.7 µM (active)
